Some compounds, each annotated with its measured minimum inhibitory concentration.
Tested on: Pasteurella multocida
Assay summary: minimum inhibitory concentration (MIC)
Protocol conditions: isolate (source animal id): 98
Assay metric: minimum inhibitory concentration

Compound	Assay metric	Experimental value
CC1(C)S[C@@H]2[C@H](NC(=O)[C@H](N)c3ccccc3)C(=O)N2[C@H]1C(=O)O [Ampicillin]	minimum inhibitory concentration	≤ 0.25 mg/L
CC1(C)S[C@@H]2[C@H](NC(=O)Cc3ccccc3)C(=O)N2[C@H]1C(=O)O [Penicillin]	minimum inhibitory concentration	≤ 0.12 mg/L
NC[C@@H]1O[C@H](O[C@H]2[C@@H](O)[C@H](O[C@@H]3[C@@H](O)[C@H](N)C[C@H](N)[C@H]3O[C@H]3O[C@H](CN)[C@@H](O)[C@H](O)[C@H]3N)O[C@@H]2CO)[C@H](N)[C@@H](O)[C@@H]1O [Neomycin]	minimum inhibitory concentration	> 32 mg/L
COc1cc(NS(=O)(=O)c2ccc(N)cc2)nc(OC)n1 [sulfadimethoxine]	minimum inhibitory concentration	> 256 mg/L
CCCNC[C@]1(O)[C@H](C)O[C@@H](O[C@H]2[C@H](C)[C@@H](O[C@@H]3O[C@H](C)C[C@H](N(C)C)[C@H]3O)[C@](C)(O)C[C@@H](C)CN[C@H](C)[C@@H](O)[C@](C)(O)[C@@H](CC)OC(=O)[C@@H]2C)C[C@@]1(C)OC [Tulathromycin]	minimum inhibitory concentration	≤ 8 mg/L
